Listed here: items and their measured concentration at 1 h.
Experiment: Drug uptake in 7 months-old Lister Hooded rat blood at 3 mg/kg, po after 1 hr treatment
Details: in vivo
State the value, then name its unit.

INSERT INTO results (molecule, experimental_endpoint, result) VALUES
  ('Cl.Nc1c2c(nc3ccccc13)CCCC2 [TACRINE HYDROCHLORIDE]', 'concentration at 1 h', '110 nM');

Next up:
Query: Data request, read-out concentration at 1 h, for Br.COc1ccc2c3c1O[C@H]1C[C@@H](O)C=C[C@@]31CCN(C)C2 [GALANTAMINE HYDROBROMIDE]
Response: 420 nM
